Molecular target: small-conductance Ca2+-activated K+ channels (SK channels, subtype 2) (Homo sapiens, UniProt Q9H2S1)
Construct: expressed in transfected cells; host or cells: HEK293
Experiment: whole-cell patch-clamp of ionic current through SK2 channels in HEK293 cells (SC100)
Type: cell-based
Conditions: whole-cell patch-clamp, HEK293 cells expressing SK2 channels; concentration that increases the basal current by 100%
recorded_endpoint: SC100 (μM)

# compound, recorded_endpoint, result
rows = [
    ("Cc1ccn(-c2nc(NC3CCC(F)(F)CC3)cc(OC(C)C)n2)n1 [IN11053-021-P1]", "SC100 (μM)", "+ (+ means >1 uM)"),
    ("Cc1csc(-c2nc(CC3CCC(F)(F)CC3)cc(N3CCOCC3)n2)n1", "SC100 (μM)", "+ (+ means >1 uM)"),
    ("COc1cc(NC2CCC(F)CC2)nc(-n2nc(C)cc2C)n1 (centres unmarked) [IN11055-079-P1]", "SC100 (μM)", "+ (+ means >1 uM)"),
    ("N#Cc1ccn(-c2nc(NC3CCC(F)(F)CC3)cc(N3CCOCC3)n2)n1 [IN11177-068-P1]", "SC100 (μM)", "+ (+ means >1 uM)"),
    ("Cc1ccn(-c2cc(COc3ncccc3C(C)O)cc(NC3CCC(F)(F)CC3)n2)n1 (centres unmarked) [IN11039-066-P1]", "SC100 (μM)", "+++ (+++ means <200 nM)"),
    ("COC(=O)N1CCC(c2cc(NC3CCC(F)(F)CC3)nc(-n3ccc(C)n3)n2)CC1", "SC100 (μM)", "+++ (+++ means <200 nM)"),
    ("Cc1csc(-c2nc(NC3CC=CCC3)cc(N3CCOCC3)n2)n1 (centres unmarked)", "SC100 (μM)", "+ (+ means >1 uM)"),
    ("Cc1cccc(-c2nccc(NC3CCC(F)(F)CC3)n2)n1 [IN11130-030-P1]", "SC100 (μM)", "+ (+ means >1 uM)"),
    ("Cc1cc(C)n(-c2ncc(N3CCOCC3)c(NC3CCC(F)(F)CC3)n2)n1 [IN10966-011-P1]", "SC100 (μM)", "+ (+ means >1 uM)"),
    ("Cc1csc(-c2cc(OCc3cnnn3C)cc(NC3CCC(F)(F)CC3)n2)n1", "SC100 (μM)", "+++ (+++ means <200 nM)"),
    ("Cc1cnc(-c2nc(NC3CCC(F)(F)CC3)cc(N3CCOCC3)n2)s1", "SC100 (μM)", "+ (+ means >1 uM)"),
    ("Cc1ccn(-c2nc(NC3CC=CCC3)cc(N3CCOCC3)n2)n1 (centres unmarked)", "SC100 (μM)", "+ (+ means >1 uM)"),
    ("COC(=O)NCCOc1c(NC2CCC(F)(F)CC2)nc(-c2nc(C)cs2)nc1OC [IN11125-052-P1]", "SC100 (μM)", "+ (+ means >1 uM)"),
    ("Cc1cc(C)n(-c2cc(C#N)nc(NC3CCC(F)(F)CC3)n2)n1", "SC100 (μM)", "+ (+ means >1 uM)"),
    ("Cc1ccn(-c2nc(C(C)O)cc(N(C)C3CCCCC3)n2)n1 (centres unmarked) [IN10880-064-P1]", "SC100 (μM)", "+ (+ means >1 uM)"),
    ("COc1cc(C#N)cnc1OCc1cc(NC2CCC(F)(F)CC2)nc(-n2ccc(C)n2)c1 [IN11125-008-P1]", "SC100 (μM)", "+++ (+++ means <200 nM)"),
    ("Cc1csc(-c2nc(NC3CCC(F)(F)CC3)cc(C(C)N3CCOCC3)n2)n1 (centres unmarked) [IN10973-028-P1]", "SC100 (μM)", "+ (+ means >1 uM)"),
    ("CCOc1ccn(-c2nc(C)cc(NC3CCC(F)(F)CC3)n2)n1 [IN11079-040-P1]", "SC100 (μM)", "+ (+ means >1 uM)"),
    ("CC(=O)c1cc(NC2CCC(F)(F)CC2)nc(-c2nc(C)cs2)c1 [IN11130-053-P1]", "SC100 (μM)", "+++ (+++ means <200 nM)"),
    ("COc1c(NC2CCC(F)(F)CC2)nc(-c2nc(C)cs2)nc1N1CCOCC1 [IN11125-001-P1]", "SC100 (μM)", "+ (+ means >1 uM)"),
    ("Cc1ccn(-c2nc(NC3CCC(F)(F)CC3)cc(N3C[C@@H]4C[C@H]3CO4)n2)n1", "SC100 (μM)", "+ (+ means >1 uM)"),
    ("CC(O)c1cc(-n2ccc(C(F)(F)F)n2)nc(NC2CCC(F)(F)CC2)n1 (centres unmarked)", "SC100 (μM)", "+ (+ means >1 uM)"),
    ("COC(=O)NCCOc1c(NC2CCC(F)(F)CC2)nc(-c2nc(C)cs2)[nH]c1=O [IN11125-065-P1]", "SC100 (μM)", "+ (+ means >1 uM)"),
]
